Test system: Enterobacter cloacae
assay-overview: Minimum inhibitory concentration in vitro against Enterobacter cloacae MA 2646
Type: functional
settings: Enterobacter cloacae; read-out: MIC
log10(MIC) listing for selected compounds.
The common logarithm of MIC in µg/mL is what is listed.

>>> numeric_readout("CNC(C)C1CCN(c2cc3c(c(N)c2F)c(=O)c(C(=O)O)cn3C2CC2)C1 (racemic)")
-1.00
>>> numeric_readout("COc1c(N2CCC(C)(CN)C2)c(F)cc2c(=O)c(C(=O)O)cn(C3CC3)c12 (centres undefined)")
-1.00
>>> numeric_readout("C[C@H](N)[C@H]1CCN(c2cc3c(cc2F)c(=O)c(C(=O)O)cn3C2CC2)C1")
-0.70
>>> numeric_readout("NC1CCN(c2c(F)cc3c(=O)c(C(=O)O)cn(C4CC4)c3c2F)C1 (centres undefined)")
-1.60
>>> numeric_readout("CCN[C@@H](C)[C@H]1CCN(c2nc3c(cc2F)c(=O)c(C(=O)O)cn3C2CC2)C1")
-0.10

// log10(MIC) lookup, compound = CCN[C@H](C)[C@H]1CCN(c2c(F)cc3c(=O)c(C(=O)O)cn(C4CC4)c3c2OC)C1 (racemic) , result: -1.00

Item: CNC(C)C1CCN(c2nc3c(cc2F)c(=O)c(C(=O)O)cn3-c2ccc(F)cc2F)C1 (racemic) | log10(MIC): -0.10

Lab book: log10(MIC) of CC(N)C1CCN(c2c(F)cc3c(=O)c(C(=O)O)cn(C4CC4)c3c2F)C1 (racemic) noted as -1.89

Entry CNCC1CCN(c2c(F)c(N)c3c(=O)c(C(=O)O)cn(C4CC4)c3c2F)C1 (centres undefined) , log10(MIC) reported as -1.30

----------
Parameter PD50: see the listing below.
System: Streptococcus pyogenes
assay-overview: Compounds were evaluated in vivo for antibacterial activity for mouse protection against Streptococcus pyogenes C 203 after oral administration
Assay type: functional
The reply should consist of the numeric value with the unit placed after it.

>>> result("CN[C@@H](C)[C@@H]1CCN(c2nc3c(cc2F)c(=O)c(C(=O)O)cn3C2CC2)C1 (mixture of isomers)")
"2 mg/kg"
>>> result("CCNC(C)C1CCN(c2cc3c(c(N)c2F)c(=O)c(C(=O)O)cn3C2CC2)C1 (racemic)")
"5 mg/kg"
>>> result("CN[C@H](C)[C@H]1CCN(c2c(F)c(N)c3c(=O)c(C(=O)O)cn(C4CC4)c3c2F)C1 (mixture of isomers)")
"0.6 mg/kg"

Please look at the following molecule next.
Given item CCN[C@@H](C)[C@@H]1CCN(c2c(F)c(N)c3c(=O)c(C(=O)O)cn(C4CC4)c3c2F)C1 (stereo in doubt; 32H-S,S) , the value recorded as its PD50 is 13 mg/kg

----------
target-or-system: DNA gyrase (Escherichia coli, UniProt P0AES4+P0AES6)
assay-overview: Inhibition against DNA gyrase
measurement-type: pIC50
Please express pIC50 as -log10 of the molar concentration.

>>> numeric_readout("C[C@@H](N)[C@H]1CCN(c2nc3c(cc2F)c(=O)c(C(=O)O)cn3C2CC2)C1 (mixture of isomers)")
5.68
>>> numeric_readout("C[C@@H](N)[C@@H]1CCN(c2nc3c(cc2F)c(=O)c(C(=O)O)cn3C2CC2)C1")
5.68
>>> numeric_readout("CC1(CN)CCN(c2cc3c(cc2F)c(=O)c(C(=O)O)cn3C2CC2)C1 (centres undefined)")
5.56
>>> numeric_readout("C[C@@H](N)[C@H]1CCN(c2cc3c(cc2F)c(=O)c(C(=O)O)cn3C2CC2)C1")
4.68

Bench note, DNA gyrase (Escherichia coli, UniProt P0AES4+P0AES6): entry NCC1CCN(c2nc3c(cc2F)c(=O)c(C(=O)O)cn3C2CC2)C1 (centres undefined) , its pIC50 = 5.66

Let me check: NC1CCN(c2cc3c(cc2F)c(=O)c(C(=O)O)cn3C2CC2)C1 (centres undefined) , system DNA gyrase (Escherichia coli, UniProt P0AES4+P0AES6), measured pIC50 is 6.12

For C[C@@H](N)[C@H]1CCN(c2cc3c(cc2F)c(=O)c(C(=O)O)cn3C2CC2)C1 (racemic) on DNA gyrase (Escherichia coli, UniProt P0AES4+P0AES6), measured pIC50 was 5.86

Reported DNA gyrase (Escherichia coli, UniProt P0AES4+P0AES6) pIC50 for item C[C@H](N)[C@H]1CCN(c2cc3c(cc2F)c(=O)c(C(=O)O)cn3C2CC2)C1 was 4.68

The recorded pIC50 with DNA gyrase (Escherichia coli, UniProt P0AES4+P0AES6) for CC1(CN)CCN(c2nc3c(cc2F)c(=O)c(C(=O)O)cn3C2CC2)C1 (centres undefined) was 4.86

----------
Organism: Mus musculus
assay-overview: Compounds were evaluated for phototoxicity no-effect dose in mouse
Assay type: functional
measurement-type: Dose

Known results for compounds:
>>> result("CCN[C@@H](C)[C@@H]1CCN(c2nc3c(cc2F)c(=O)c(C(=O)O)cn3C2CC2)C1 (racemic)")
"<30 mg/kg"
>>> result("CC(N)C1CCN(c2c(F)cc3c(=O)c(C(=O)O)cn(C4CC4)c3c2C(F)(F)F)C1 (racemic)")
">100 mg/kg"
>>> result("NC1CCN(c2c(F)cc3c(=O)c(C(=O)O)cn(C4CC4)c3c2C(F)(F)F)C1 (configuration not stated)")
">100 mg/kg"
>>> result("COc1c(N2CCC(N)C2)c(F)cc2c(=O)c(C(=O)O)cn(C3CC3)c12 (configuration not stated)")
">100 mg/kg"
>>> result("C[C@@H](N)[C@H]1CCN(c2c(F)c(N)c3c(=O)c(C(=O)O)cn(C4CC4)c3c2F)C1 (racemic)")
"<30 mg/kg"

CN[C@H](C)[C@H]1CCN(c2c(F)cc3c(=O)c(C(=O)O)cn(C4CC4)c3c2OC)C1 (racemic) yielded Dose of >100 mg/kg

The reported value for CNC(C)C1CCN(c2cc3c(c(N)c2F)c(=O)c(C(=O)O)cn3C2CC2)C1 (racemic) in terms of Dose is >100 mg/kg

The compound listed as Nc1c(F)c(N2CCC(N)C2)cc2c1c(=O)c(C(=O)O)cn2C1CC1 (configuration not stated) shows Dose equal to >300 mg/kg

Item: CN[C@H](C)[C@@H]1CCN(c2c(F)c(N)c3c(=O)c(C(=O)O)cn(C4CC4)c3c2F)C1 | Dose: <30 mg/kg

Dose for NC1CCN(c2nc3c(cc2F)c(=O)c(C(=O)O)cn3-c2ccc(F)cc2F)C1 (configuration not stated) is >100 mg/kg

Given item CCn1cc(C(=O)O)c(=O)c2cc(F)c(N3CC[C@H]([C@@H](C)N)C3)c(F)c21 (mixture of isomers) , the value recorded as its Dose is <10 mg/kg

// Dose lookup, compound = CN[C@H](C)[C@H]1CCN(c2c(F)cc3c(=O)c(C(=O)O)cn(C4CC4)c3c2C(F)(F)F)C1 (mixture of isomers) , result: >100 mg/kg

----------
System: Enterobacter cloacae
assay-overview: Minimum inhibitory concentration in vitro against Enterobacter cloacae MA 2646
Type: functional
settings: Enterobacter cloacae; read-out: MIC
The compounds listed here are annotated with their MIC.
State the answer as a number, implicitly in µg/mL.

The cases that follow already have their MIC on record.
>>> numeric_readout("CN[C@H](C)[C@H]1CCN(c2c(F)cc3c(=O)c(C(=O)O)cn(C4CC4)c3c2OC)C1 (racemic)")
0.05
>>> numeric_readout("CCN[C@H](C)[C@H]1CCN(c2cc3c(cc2F)c(=O)c(C(=O)O)cn3C2CC2)C1 (mixture of isomers; form 2)")
0.2
>>> numeric_readout("COc1c(N2CC[C@@H]([C@H](C)N)C2)c(F)cc2c(=O)c(C(=O)O)cn(C3CC3)c12")
0.8

Next, consider the following compound.
In plain terms, COc1c(N2CC[C@@H]([C@@H](C)N)C2)c(F)cc2c(=O)c(C(=O)O)cn(C3CC3)c12 has a documented MIC of 0.05

----------
Test system: Streptococcus pyogenes
assay-overview: Minimum inhibitory concentration was evaluated in vitro against Streptococcus pyogenes C 203
Format: functional
Listed here: items and their measured MIC.
Give the value in µg/mL but do not write µg/mL after it.

>>> numeric_readout("CCN[C@@H](C)[C@@H]1CCN(c2c(F)c(N)c3c(=O)c(C(=O)O)cn(C4CC4)c3c2F)C1 (stereo in doubt; 32H-S,S)")
0.2
>>> numeric_readout("CN[C@H](C)[C@H]1CCN(c2cc3c(cc2F)c(=O)c(C(=O)O)cn3C2CC2)C1 (mixture of isomers)")
0.05
>>> numeric_readout("CCN[C@@H](C)[C@@H]1CCN(c2nc3c(cc2F)c(=O)c(C(=O)O)cn3C2CC2)C1")
0.4

Value of measured MIC for the entry CCN[C@@H](C)[C@@H]1CCN(c2nc3c(cc2F)c(=O)c(C(=O)O)cn3C2CC2)C1 (racemic) : 0.05

Source: ChEMBL document CHEMBL1126988
